Known pKd of a selection of compounds
- Subject of test: dsA2: HLA-A*02:01(Y84C/A139C) disulfide mutant heavy chain / β2m complex (Homo sapiens, UniProt P04439, A163C/D140Y/D185E/D98H/E176V/E277Q/G131W/G231S/I119V/I121R/I166T/I218V/L300P/L318F/N151K/N90K/P208A/P217A/Q86G/Q94H/R138H/R169H/T345S/Y108C)
- Construct: made in house; host or cells: Escherichia coli (pET3a)
- Test details: biochemical
- Type: binding
Peptide text beside a SMILES is read from it.
Would you please state pKd, meaning minus log10 of the concentration in mol/L, as a bare number?

>>> df
                                   compound  measurement
0  CC(C)C[C@H](NC(=O)[C@@H](N)CC(N)=O)C(=O)N[C@H](C(=O)N1CCC[C@H]1C(=O)O)C(C)C [NP4] (H-NLVP-OH)         4.30

What value of measured pKd is listed for CC(C)[C@H](N)C(=O)N[C@@H](C)C(=O)N[C@H](C(=O)N[C@H](C(=O)O)C(C)C)[C@@H](C)O [VV4] (H-VATV-OH) ? 4.30
